Taken from patent US20200317776A1.

target: human TREM2/DAP12 fusion protein (human, UniProt O43914 41-113, limits assumed); assay: cell-based or functional assay
Sequence (O43914 other isoform, or with tags, fused parts or gaps limits assumed): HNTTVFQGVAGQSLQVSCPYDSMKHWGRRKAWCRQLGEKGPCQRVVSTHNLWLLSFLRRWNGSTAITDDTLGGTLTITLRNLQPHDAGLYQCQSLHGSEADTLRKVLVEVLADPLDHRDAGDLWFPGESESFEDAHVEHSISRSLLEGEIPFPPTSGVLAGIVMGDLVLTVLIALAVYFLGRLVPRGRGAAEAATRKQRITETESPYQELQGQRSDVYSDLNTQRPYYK
So I've got a bunch of binders here, and I need their BW Luc assay soluble 7.3 nM IgG, FOC values.
Kindly provide the numeric value in FOC only, without the unit symbol.

Short answer for AL2p-44 (antibody, IgG1, V domains shown, Fab and IgG formats under one id) VH: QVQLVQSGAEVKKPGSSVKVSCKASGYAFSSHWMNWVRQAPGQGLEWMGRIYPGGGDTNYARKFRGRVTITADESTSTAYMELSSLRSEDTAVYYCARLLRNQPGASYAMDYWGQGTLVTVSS VL: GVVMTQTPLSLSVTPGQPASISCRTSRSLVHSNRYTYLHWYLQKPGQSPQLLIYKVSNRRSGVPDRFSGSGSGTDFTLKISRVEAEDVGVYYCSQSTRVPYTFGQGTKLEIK : BW Luc assay soluble 7.3 nM IgG, FOC was 11.5

Short answer for AL2p-56 (antibody, V domains shown, same VH/VL entries as AL2p-55; Fab and IgG formats under one id) VH: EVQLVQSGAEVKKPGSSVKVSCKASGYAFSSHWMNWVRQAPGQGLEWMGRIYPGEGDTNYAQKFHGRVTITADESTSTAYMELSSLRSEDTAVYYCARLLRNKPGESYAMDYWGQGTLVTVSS VL: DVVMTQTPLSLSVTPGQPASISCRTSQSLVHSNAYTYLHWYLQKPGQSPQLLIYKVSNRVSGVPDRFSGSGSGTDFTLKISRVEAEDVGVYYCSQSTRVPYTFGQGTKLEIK : BW Luc assay soluble 7.3 nM IgG, FOC was 2.02
